Origin of values: patent US12509474B2

# measured on: human C1s protein (Homo sapiens, UniProt P09871)
# Construct: A104
# Sequence (P09871 16-688): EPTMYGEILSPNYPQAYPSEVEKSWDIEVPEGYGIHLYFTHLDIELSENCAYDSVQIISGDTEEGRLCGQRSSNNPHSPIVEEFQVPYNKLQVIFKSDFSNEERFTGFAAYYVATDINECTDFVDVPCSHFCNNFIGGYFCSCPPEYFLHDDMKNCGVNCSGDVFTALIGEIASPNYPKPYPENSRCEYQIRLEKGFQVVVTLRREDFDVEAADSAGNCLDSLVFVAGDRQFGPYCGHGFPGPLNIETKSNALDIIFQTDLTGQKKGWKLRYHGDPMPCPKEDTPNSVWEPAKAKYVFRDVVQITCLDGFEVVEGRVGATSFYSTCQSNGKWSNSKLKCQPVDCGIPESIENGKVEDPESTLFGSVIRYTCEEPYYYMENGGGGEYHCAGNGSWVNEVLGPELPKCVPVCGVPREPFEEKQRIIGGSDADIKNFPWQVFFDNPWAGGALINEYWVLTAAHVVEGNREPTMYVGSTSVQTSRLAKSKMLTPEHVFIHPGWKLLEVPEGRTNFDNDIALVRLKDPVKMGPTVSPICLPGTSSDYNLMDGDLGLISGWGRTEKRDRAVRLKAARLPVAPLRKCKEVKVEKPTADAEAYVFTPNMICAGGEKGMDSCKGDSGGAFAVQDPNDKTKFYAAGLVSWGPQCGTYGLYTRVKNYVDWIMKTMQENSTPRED
# protocol: C1s enzymatic assay (hydrolysis of YLGR-Rh110-dPro)
# Type: biochemical
# assay context: substrate YLGR-Rh110-dPro 20 μM, 15 min pre-incubation, 60 min RT, fluorescence, read-out: hC1s pIC50 (converted)
Structures can show the parent of a compound that is named as a salt.
assay endpoint: IC50 (nM)

Guide cases for IC50, answers given:
COc1ccc(B(O)O)cc1-c1ccc2ccnnc2c1: 617
COc1cc(C(F)(F)F)c(B(O)O)cc1-c1ccc2c(N)cnnc2c1: 4.57
Nc1cnnc2cc(-c3cc(B(O)O)ccc3OCC3(C(F)(F)F)CC3)ccc12: 1.62
Nc1cnnc2cc(-c3cc(B(O)O)ccc3OCCC3CCCO3)ccc12 (centres unmarked): 0.661
Cc1nnc(N)c2ccc(-c3cc(B(O)O)cc4ccoc34)cc12: 0.851

a: Cc1nnc(N)c2ccc(-c3cc(B(O)O)ccc3C(F)(F)F)cc12 [Example 39, Formic Acid Salt]
b: CC(C)NC(=O)c1ccc(B(O)O)cc1-c1ccc2c(N)cnnc2c1 [Example 120, Formic Acid Salt]
c: COc1c(-c2ccc3c(N)nnc(C)c3c2)cc(B(O)O)cc1C(F)(F)F
d: CC(C)NC(=O)COc1ccc(B(O)O)cc1-c1ccc2c(N)cnnc2c1
Rank the items in ascending order with respect to IC50. // list labels; follow requested order a, c, d, b
(a: 1.32 nM, c: 1.91 nM, d: 2.88 nM, b: 11.2 nM)

P: Nc1cnnc2cc(-c3c(OC(F)F)ccc(B(O)O)c3F)ccc12
Q: COc1c(F)cc(B(O)O)cc1-c1ccc2c(N)nnc(C)c2c1 [Example 57, Trifluoroacetic Acid Salt]
Hi team, can someone confirm which has the larger IC50: P or Q ? Thanks. Identify your pick by its label. P
(P: 11.7 nM, Q: 1.48 nM)

1: COc1ccc(B(O)O)cc1-c1cc(F)c2c(N)nnc(C)c2c1
2: Nc1cnnc2cc(-c3cc(B(O)O)ccc3OCc3cnsc3)ccc12
3: COc1cc(C)c(B(O)O)cc1-c1ccc2c(N)cnnc2c1 [Example 134, Formic Acid Salt]
Highest IC50 first, then in falling order down to the smallest. // list labels; follow requested order 1, 3, 2
(1: 6.61 nM, 3: 2.09 nM, 2: 0.871 nM)

A: Nc1cnnc2cc(-c3cc(B(O)O)ccc3Oc3cncs3)ccc12 [Example 168, Formic Acid Salt]
B: Nc1cnnc2cc(-c3cc(B(O)O)ccc3OC[C@@H]3CC(F)(F)CN3)ccc12
C: COc1ccc(B(O)O)cc1-c1ccc2c(N)nc(C)cc2c1
D: Nc1cnnc2cc(-c3cc(B(O)O)ccc3OC3CCC(=O)NC3)ccc12 (centres unmarked)
E: Nc1cnnc2cc(-c3ccc4c(c3)B(O)ON=C4)ccc12 [Example 156, Formic Acid Salt]
Rank the items in ascending order with respect to IC50. // list labels; follow requested order B, A, D, E, C
(B: 0.891 nM, A: 1.32 nM, D: 6.03 nM, E: 55 nM, C: 269 nM)
